Taken from patent US10689343B2.

Biological target: CYP3A4 (Homo sapiens)
Sequence (P08684 whole entry): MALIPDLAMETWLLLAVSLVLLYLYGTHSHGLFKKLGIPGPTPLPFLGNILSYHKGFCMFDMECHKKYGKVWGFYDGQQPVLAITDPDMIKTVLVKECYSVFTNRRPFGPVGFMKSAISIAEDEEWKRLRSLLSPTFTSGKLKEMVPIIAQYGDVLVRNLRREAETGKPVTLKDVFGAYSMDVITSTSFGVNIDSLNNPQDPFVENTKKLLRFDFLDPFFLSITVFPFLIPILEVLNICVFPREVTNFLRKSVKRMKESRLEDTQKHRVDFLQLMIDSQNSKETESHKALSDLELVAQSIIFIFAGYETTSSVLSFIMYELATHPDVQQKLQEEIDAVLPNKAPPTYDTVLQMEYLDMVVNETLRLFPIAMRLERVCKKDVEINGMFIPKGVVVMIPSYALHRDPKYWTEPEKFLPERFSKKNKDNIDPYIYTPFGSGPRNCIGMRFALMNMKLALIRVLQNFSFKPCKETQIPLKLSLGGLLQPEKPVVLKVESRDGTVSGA
Assay: P450-Glo CYP3A4 luciferin isopropylacetal (Luc-IP) assay
For each entry below, report its IC50 value.

For orientation, consider the following solved cases.
{"compound": "C[C@H](CO)NC(=O)c1ccc(-c2c[nH]c3cc(F)ccc23)c(F)c1", "target": "CYP3A4 (Homo sapiens)", "result": "5 to 10 µM"}
{"compound": "CC(O)C(C)NC(=O)c1ccc(-c2c[nH]c3cc(F)ccc23)cc1 (stereo not drawn)", "target": "CYP3A4 (Homo sapiens)", "result": "> 10 µM"}

Dear colleague, could you please provide IC50 for the compounds listed below?
1. O=C(N[C@@H]1CCNC[C@@H]1F)c1ccc(-c2c[nH]c3cc(F)ccc23)cc1
2. COc1cc(-c2c[nH]c3cc(F)ccc23)ccc1C(=O)N[C@@H](C)CO
3. O=C(N[C@H]1CCCNC1)c1ccc(-c2c[nH]c3ccc(F)cc23)cc1

["5 to 10 µM", "> 10 µM", "> 10 µM"]

Dear colleague, could you please provide IC50 for the compounds listed below?
1. CC(=O)Nc1ccc(-c2c[nH]c3cc(F)ccc23)cc1
2. O=C(N[C@H]1CCCNC1)c1ccc(-c2c[nH]c3cc(F)ccc23)cc1F
3. CN1CCCC(NC(=O)c2ccc(-c3c[nH]c4cc(F)ccc34)cc2Cl)C1 (stereo not drawn)
4. NC(=O)CNC(=O)c1ccc(-c2c[nH]c3cc(F)ccc23)cc1

1: > 10 µM; 2: 5 to 10 µM; 3: 5 to 10 µM; 4: > 10 µM

Dear colleague, could you please provide IC50 for the compounds listed below?
1. C[C@H](CO)NC(=O)c1ccc(-c2c[nH]c3cc(F)ccc23)cc1
2. O=C(N[C@@H]1CCCNC1)c1ccc(-c2c[nH]c3cc(F)ccc23)cc1
3. CN1CCC(O)(CNC(=O)c2ccc(-c3c[nH]c4cc(F)ccc34)cc2)CC1
4. O=C(NC1CCOCC1)c1ccc(-c2c[nH]c3cc(F)ccc23)cc1
5. CN(C)CC(O)CNC(=O)c1ccc(-c2c[nH]c3cc(F)ccc23)cc1 (stereo not drawn)
6. C[C@@H](CO)NC(=O)c1ccc(-c2c[nH]c3cc(F)ccc23)cc1F
7. CN1CCC(NC(=O)c2ccc(-c3c[nH]c4cc(F)ccc34)cc2Cl)CC1

1. > 10 µM
2. > 10 µM
3. > 10 µM
4. > 10 µM
5. > 10 µM
6. 5 to 10 µM
7. > 10 µM

Dear colleague, could you please provide IC50 for the compounds listed below?
1. CN1CCN(CCCNC(=O)c2ccc(-c3c[nH]c4cc(F)ccc34)cc2Cl)CC1
2. O=C(N[C@H]1CCCNC1)c1ccc(-c2c[nH]c3cc(F)ccc23)cc1

1: 5 to 10 µM; 2: > 10 µM

====

For each entry below, report its pIC50 value.
Biological target: Recombinant TDO (Homo sapiens)
Construct: Recombinant TDO (Seegers, N., et al.) and all other assay components were diluted in TDO reaction buffer
Sequence (P48775 whole entry): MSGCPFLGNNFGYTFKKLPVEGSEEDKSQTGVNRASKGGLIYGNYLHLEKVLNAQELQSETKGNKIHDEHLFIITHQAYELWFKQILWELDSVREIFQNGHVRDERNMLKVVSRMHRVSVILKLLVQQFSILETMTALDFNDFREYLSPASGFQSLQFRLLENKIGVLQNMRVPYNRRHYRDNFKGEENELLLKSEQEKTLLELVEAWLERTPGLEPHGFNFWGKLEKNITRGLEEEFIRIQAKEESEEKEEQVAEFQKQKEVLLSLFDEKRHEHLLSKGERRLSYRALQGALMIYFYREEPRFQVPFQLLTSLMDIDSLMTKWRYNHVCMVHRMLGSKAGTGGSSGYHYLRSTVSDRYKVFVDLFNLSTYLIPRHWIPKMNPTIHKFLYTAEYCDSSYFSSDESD
Assay: Biochemical assay for TDO (NFK GreenScreen)
Settings: 50 nM TDO, 200 μM L-tryptophan
pIC50: −log10 of the molar value.

For orientation, consider the following solved cases.
{"molecule": "O=C(NCCN1CCCC1)c1ccc(-c2c[nH]c3cc(F)ccc23)cc1", "result": "> 6.00"}
{"molecule": "C[C@@H](CO)NC(=O)c1ccc(-c2c[nH]c3cc(F)ccc23)cc1", "result": "> 6.00"}
{"molecule": "CC(=O)NCCNC(=O)c1ccc(-c2c[nH]c3cc(F)ccc23)cc1", "result": "5.30 to 6.00"}
{"molecule": "O=C(CC1CNCCO1)Nc1ccc(-c2c[nH]c3cc(F)ccc23)cc1 (centres unmarked)", "result": "> 6.00"}

For Recombinant TDO (Homo sapiens), provide pIC50 of COc1cc(-c2c[nH]c3cc(F)ccc23)ccc1C(=O)N[C@H](C)CO please.
5.30 to 6.00
